# MIC listing for each entry below
Test system: Escherichia coli
Test Name: Antibacterial activity against Escherichia coli N43 incubated for 20 hrs and measured by broth microdilution method
Format: functional

Below are worked cases with known answers.
Which value of MIC has been reported for "O=C(O)c1cc(-c2ccc(/C=C/c3ccccc3)cc2)nc2ccccc12" in the records?
> 128 µg/mL

What MIC value was documented for this molecule, "O=C(O)c1cc(-c2ccc(-c3ccccc3)cc2)nc2ccccc12" ?
> 128 µg/mL

Which MIC value belongs to "CNC(=O)[C@@H](Cc1cn(C(=O)OC(C)(C)C)c2ccccc12)NCc1ccc(-n2ccnc2)c(-c2ccc(-c3cc(C(=O)O)c4ccccc4n3)cc2)c1" ?
> 128 µg/mL

Continue with the molecule presented below.
Recorded MIC of "CC[C@H](C)[C@@H](CCC(=O)NC)NC(=O)[C@H](Cc1c[nH]c2ccc(F)cc12)NC(=O)[C@H](CCC(C)C)NCc1cnn(C)c1-c1ccc(OC)cc1" , please.
> 250 µM

====

System: UDP-N-acetylglucosamine 1-carboxyvinyltransferase (Escherichia coli K-12)
Sequence (P0A749 whole entry): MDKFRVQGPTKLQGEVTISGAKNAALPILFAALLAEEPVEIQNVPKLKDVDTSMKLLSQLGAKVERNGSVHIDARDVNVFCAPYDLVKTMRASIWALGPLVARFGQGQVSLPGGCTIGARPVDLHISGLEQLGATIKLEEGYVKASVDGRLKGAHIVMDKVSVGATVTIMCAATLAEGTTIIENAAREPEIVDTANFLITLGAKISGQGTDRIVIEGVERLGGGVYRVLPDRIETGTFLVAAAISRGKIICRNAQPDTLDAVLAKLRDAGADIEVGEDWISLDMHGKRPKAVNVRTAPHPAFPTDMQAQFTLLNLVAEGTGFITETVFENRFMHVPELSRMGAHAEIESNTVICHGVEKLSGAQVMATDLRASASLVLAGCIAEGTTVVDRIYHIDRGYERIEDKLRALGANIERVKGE
Test Name: Inhibition of recombinant Escherichia coli MurA assessed as residual activity at 1 mM using UDP-N-acetylglucosamine as substrate incubated for 15 mins and measured by malachite green based colorimetric assay relative to control
So basically, if Activity comes in under 90% it's 1, and if it's 90% or more it's -1.

Worked examples follow.
Report whether reported Activity is lower than 90% (strictly) for "O=C(O)c1c(-c2ccccc2)c(-c2ccccc2)nc2ccccc12"
1

Bench note: check whether "O=C(O)c1cc(-c2ccco2)nc2ccccc12" shows Activity below 90%
1

Please state whether Activity is below 90% for "O=C(O)c1cc(-c2cccc(Cl)c2)nc2ccccc12"
1

Report whether reported Activity is lower than 90% (strictly) for "O=C(O)c1cc(-c2ccccc2)nc2cc(Cl)ccc12"
-1

Consider "O=C(O)c1cc(-c2ccc(Cl)cc2)nc2ccccc12" . Does its Activity lie strictly below 90%?
1

Given the entry CNC(=O)C(N)Cc1c[nH]c2ccccc12 (centres undefined) , would its reported Activity be below 90%?
-1

Quick check: Activity of "O=C(O)c1cc(-c2ccccc2O)nc2ccccc12" under 90%?
1

Does "O=C(O)c1cc(-c2ccccc2)nc2c(Cl)cccc12" have Activity strictly under 90%?
-1

Is Activity of "O=C(O)c1cc(-c2ccc(O)cc2)nc2ccccc12" strictly below 90%?
1

Problem: For the compound "O=C(O)c1cc(-c2ccccc2)nc2ccc(Cl)cc12" , is Activity under 90%?
1

New cases:
Lab note: Activity threshold 90%. Does this compound come in strictly under it? "O=C(O)c1cc(-c2cccc(O)c2)nc2ccccc12"
1

Report whether reported Activity is lower than 90% (strictly) for "O=C(O)c1cc(-c2ccc3c(c2)OCCO3)nc2ccccc12"
1

Report whether reported Activity is lower than 90% (strictly) for "O=C(O)c1cc(-c2ccccc2Cl)nc2ccccc12"
1

====

System: UDP-N-acetylglucosamine 1-carboxyvinyltransferase (Escherichia coli K-12)
Test Name: Inhibition of recombinant Escherichia coli MurA using UDP-N-acetylglucosamine as substrate incubated for 15 mins and measured by malachite green based colorimetric assay
Observation Type: pIC50
A value of pIC50 is the negative decimal logarithm of a concentration given in moles per litre.

// query pIC50 value for entry "O=C(O)c1cc(-c2ccc(-c3ccccc3)cc2)nc2ccccc12"
3.76

Continuing:
Item under review: "CNC(=O)[C@@H](Cc1cn(C(=O)OC(C)(C)C)c2ccccc12)NCc1ccc(-n2ccnc2)c(-c2ccc(-c3cc(C(=O)O)c4ccccc4n3)cc2)c1" . Reported pIC50?
4.85

Field request: pIC50 | item: "CNC(=O)[C@@H](Cc1c[nH]c2ccccc12)NCc1ccc(-n2ccnc2)c(-c2ccc(-c3cc(C(=O)O)c4ccccc4n3)cc2)c1"
4.81

What pIC50 value was documented for this compound, "O=C(O)c1cc(-c2ccc(/C=C/c3ccccc3)cc2)nc2ccccc12" ?
4.11

====

System: D-alanine--D-alanine ligase B (Escherichia coli K-12) (UniProt P07862)
Test Name: Inhibition of recombinant Escherichia coli DdlB assessed as residual activity at 1 mM using D-alanine as substrate incubated for 20 mins and measured by malachite green based colorimetric assay relative to control
Observation Type: Activity (%)
Please respond with the number in % and leave the unit unwritten.

What does the record list as Activity for "O=C(O)CCc1c[nH]c2ccc(F)cc12" ?
94.2

Others:
Suppose we examine the molecule "COc1ccc(-c2cc[nH]n2)cc1" ; what Activity value has been reported?
92.9

Field request: Activity | item: NC(Cc1c[nH]c2ccc(F)cc12)C(=O)O (stereo not given)
92.5

Activity lookup needed for "COc1ccc(-c2[nH]ncc2CN)cc1" , thanks.
58.6

Fill in: Activity of "Cc1c[nH]c2ccc(F)cc12" is ___
108

====

Tested on: Escherichia coli
Test Name: Antibacterial activity against Escherichia coli D22 incubated for 20 hrs and measured by broth microdilution method
Format: functional
We begin with a simple list: items and their reported MIC.
I only need the number, in µg/mL, no unit after it.

// query MIC value for entry "O=C(O)c1cc(-c2ccc(-c3ccccc3)cc2)nc2ccccc12"
128

---
// lookup MIC for "O=C(O)c1cc(-c2ccc(/C=C/c3ccccc3)cc2)nc2ccccc12"
32

====

Test system: Escherichia coli
Test Name: Antibacterial activity against Escherichia coli ATCC 25922 incubated for 20 hrs and measured by broth microdilution method
Assay type: functional
Let's look at some molecules and their measured MIC.

Observe how each entry below is paired with its result.
Consider the molecule shown here: "CNC(=O)[C@@H](Cc1cn(C(=O)OC(C)(C)C)c2ccccc12)NCc1ccc(-n2ccnc2)c(-c2ccc(-c3cc(C(=O)O)c4ccccc4n3)cc2)c1" What is its recorded MIC?
> 128 µg/mL

I'd like to know its MIC. The molecule in question is "O=C(O)c1cc(-c2ccc(/C=C/c3ccccc3)cc2)nc2ccccc12"
> 128 µg/mL

Using the record for "O=C(O)c1cc(-c2ccc(-c3ccccc3)cc2)nc2ccccc12" , report its MIC.
> 128 µg/mL

New cases:
Name the reported MIC value associated with the molecule "CC[C@H](C)[C@@H](CCC(=O)NC)NC(=O)[C@H](Cc1c[nH]c2ccc(F)cc12)NC(=O)[C@H](CCC(C)C)NCc1cnn(C)c1-c1ccc(OC)cc1"
> 250 µM
